Items are presented alongside their recorded MIC.
# Tested on: Bacillus subtilis
I only need the number, in µM, no unit after it.

{"input smiles": "CC(C)C[C@H](NC(=O)[C@H](CCCCN)NC(=O)[C@H](CCCN=C(N)N)NC(=O)[C@H](Cc1ccccc1)NC(=O)[C@H](Cc1ccccc1)NC(=O)[C@H](CCCCN)NC(=O)[C@H](CCCCN)NC(=O)[C@H](Cc1ccccc1)NC(=O)[C@H](CCCN=C(N)N)NC(=O)[C@H](CCCCN)NC(=O)[C@@H](NC(=O)[C@@H](N)CC(C)C)C(C)C)C(=O)N[C@@H](CCCCN)C(=O)N[C@@H](CCCCN)C(=O)N[C@@H](CO)C(=O)N[C@H](C(=O)N[C@@H](CCCCN)C(N)=O)C(C)C", "MIC / µM": 14.7}

Quick one: MIC for "CC(C)[C@H](N)C(=O)N[C@@H](CCCCN)C(=O)N[C@@H](CCCN=C(N)N)C(=O)N[C@@H](Cc1ccccc1)C(=O)N[C@@H](CCCCN)C(=O)N[C@@H](CCCCN)C(=O)N[C@@H](Cc1ccccc1)C(=O)N[C@@H](Cc1ccccc1)C(=O)N[C@@H](CCCN=C(N)N)C(=O)N[C@@H](CCCCN)C(=O)N[C@@H](Cc1ccccc1)C(=O)N[C@@H](CCCCN)C(=O)N[C@@H](CCCCN)C(=O)N[C@@H](Cc1ccccc1)C(=O)N[C@H](C(N)=O)C(C)C" ? 9.2

Also check "CC[C@H](C)[C@H](N)C(=O)N[C@@H](CC(N)=O)C(=O)N[C@@H](Cc1c[nH]c2ccccc12)C(=O)N[C@@H](CCCCN)C(=O)N[C@@H](CO)C(=O)N[C@H](C(=O)N[C@@H](Cc1ccccc1)C(=O)N[C@@H](CCC(=O)O)C(=O)N[C@@H](CCCCN)C(=O)N[C@H](C(=O)N[C@@H](CCCCN)C(=O)N[C@@H](CC(N)=O)C(=O)N[C@@H](CC(C)C)C(=O)N[C@H](C(N)=O)C(C)C)C(C)C)[C@@H](C)CC" 15

Also check "CC(C)C[C@H](NC(=O)[C@@H](NC(=O)[C@H](CCCCN)NC(=O)[C@H](CO)NC(=O)[C@H](C)NC(=O)[C@@H](NC(=O)[C@H](CCCCN)NC(=O)[C@H](Cc1ccccc1)NC(=O)[C@H](CC(C)C)NC(=O)[C@H](C)NC(=O)CNC(=O)[C@H](CC(C)C)NC(=O)[C@@H](N)Cc1c[nH]c2ccccc12)C(C)C)C(C)C)C(=O)O" 4.4

Also check "CC(C)C[C@H](NC(=O)[C@H](CCCCN)NC(=O)[C@H](CCCN=C(N)N)NC(=O)[C@H](Cc1ccccc1)NC(=O)[C@H](Cc1ccccc1)NC(=O)[C@H](CCCCN)NC(=O)[C@H](CCCCN)NC(=O)[C@H](Cc1ccccc1)NC(=O)[C@H](CCCN=C(N)N)NC(=O)[C@H](CCCCN)NC(=O)[C@@H](NC(=O)[C@@H](N)CC(C)C)C(C)C)C(=O)N[C@@H](CCCCN)C(=O)N[C@@H](CCCCN)C(=O)N[C@@H](CO)C(=O)N[C@H](C(=O)N[C@@H](CCCCN)C(=O)N[C@@H](CCCCN)C(N)=O)C(C)C" 27.7

Also check "CC[C@H](C)[C@H](N)C(=O)N[C@@H](CC(N)=O)C(=O)N[C@@H](Cc1c[nH]c2ccccc12)C(=O)N[C@@H](CC(C)C)C(=O)N[C@@H](CCCN=C(N)N)C(=O)N[C@@H](CC(C)C)C(=O)NCC(=O)N[C@@H](CCCN=C(N)N)C(=O)N[C@@H](CCCN=C(N)N)C(=O)N[C@H](C(=O)N[C@@H](CC(C)C)C(=O)NCC(=O)N[C@@H](C)C(=O)N[C@@H](CC(C)C)C(N)=O)[C@@H](C)CC" 17.5
